Tested on: Morganella morganii
test protocol: In vitro minimal inhibitory concentration (MIC) of compound in combination with Ceftazidime (CAZ) showed synergic activity against Morganella morganii 36030
Assay type: functional
experimental readout: MIC

molecule: CC(C)(O/N=C(\C(=O)NC1C(=O)N2C(C(=O)[O-])=C(C[n+]3ccccc3)CSC12)c1csc(N)n1)C(=O)O.CO/N=C/[C@@]1(C)[C@H](C(=O)[O-])N2C(=O)[C@@H]([C@@H](O)c3ccccc3)[C@H]2S1(=O)=O.[Na+] (centres undefined)
MIC: 1 µg/mL
//
molecule: CC(C)(O/N=C(\C(=O)NC1C(=O)N2C(C(=O)[O-])=C(C[n+]3ccccc3)CSC12)c1csc(N)n1)C(=O)O.C[C@]1(Cn2ccnn2)[C@H](C(=O)[O-])N2C(=O)CC2S1(=O)=O.[Na+] (centres undefined)
MIC: < 0.25 µg/mL
//
molecule: CC(C)(O/N=C(\C(=O)NC1C(=O)N2C(C(=O)[O-])=C(C[n+]3ccccc3)CSC12)c1csc(N)n1)C(=O)O.CO/N=C/[C@@]1(C)[C@H](C(=O)[O-])N2C(=O)CC2S1(=O)=O.[Na+] (centres undefined)
MIC: < 0.25 µg/mL

Please examine the following record next.
Data request: Any idea what MIC was measured for CC(C)(O/N=C(\C(=O)N[C@@H]1C(=O)N2C(C(=O)[O-])=C(C[n+]3ccccc3)CS[C@H]12)c1csc(N)n1)C(=O)O.CC1(C)[C@H](C(=O)[O-])N2C(=O)[C@@H]([C@@H](O)c3ccccc3)[C@H]2S1(=O)=O.[Na+] ?
Data returned: < 0.25 µg/mL
